Origin of values: patent US12139487B2

Tested on: BRM-dependent transcription (BRG1 mutant lung cancer cell line A549)
Experimental details: BRM-dependent transcription, MMTV luciferase reporter in BRG1 mutant A549 cells
Format: cell-based
Reported conditions: MMTV luciferase reporter cell lines, selectivity BRG1/BRM, Table 11
Quantity name: Ratio (MDA-MMTV IC50 (μM) divided by A549-MMTV IC50 (μM))

Example cases with answers are listed next.
CC(C)c1ccc(-c2ccc3cnc(CNC(=O)c4cc(Br)c5c(c4)S(=O)(=O)[C@@H](F)CCO5)cc3n2)c(OC(F)F)n1 [Compound 402] | 26.98
O=C(NCc1cc2nc(-c3cccc(OC(F)F)c3)ccc2cn1)c1cc(F)c2c(c1)S(=O)(=O)[C@@H](F)CCO2 [Compound 342] | 23.62
CCOc1nc(C(C)(F)F)ccc1-c1ccc2cnc(CNC(=O)c3cc(F)c4c(c3)S(=O)(=O)[C@@H](F)COC4)cc2n1 [Compound 468] | 25.28
CCOc1nc([C@H](F)CF)ccc1-c1ccc2cnc(CNC(=O)c3cc(Br)c4c(c3)S(=O)(=O)[C@@H](F)COC4)cc2n1 [Compound 461] | 56.88

P = CCOc1nc([C@@H](F)CF)ccc1-c1ccc2cnc(CNC(=O)c3cc(C(F)F)c4c(c3)S(=O)(=O)[C@@H](F)COC4)cc2n1 [Compound 457]
Q = O=C(NCc1cc2nc(-c3ccc(OC(F)F)c(C4CC4)n3)ccc2cn1)c1cc(Cl)c2c(c1)S(=O)(=O)[C@@H](F)CCO2 [Compound 357]
I need your help: which of the pair P , Q has higher Ratio (MDA-MMTV IC50 (μM) divided by A549-MMTV IC50 (μM))? # respond with the chosen item's label
P
(P: 33.28, Q: 22.68)

====

System tested: BRM (Homo sapiens)
Construct: made in house; host or cells: High Five insect cells
Experimental details: ATPase catalytic activity assay (ADP-Glo), BRM
Assay type: biochemical
Reported conditions: ATPase assay, selectivity BRG1/BRM, Table 10
Quantity name: Ratio (BRG1 IC50 (μM) divided by BRM IC50 (μM))

Illustrative cases are given below, each with its answer.
Cc1cc(C(=O)NCc2cc3nc(N4CCOc5cc(N6CC[C@H]6C)cnc54)ccc3cn2)cc2c1OCC[C@H](F)S2(=O)=O [Compound 160] | 17.82
O=C(NCc1cc2nc(N3CCOc4cc([C@H]5CC5(F)F)cnc43)ccc2cn1)c1cc(F)c2c(c1)S(=O)(=O)[C@@H](F)CCO2 [Compound 166] | 15.93
C[C@@H]1CN(c2cccc(-c3ccc4cnc(CNC(=O)c5ccc6c(c5)S(=O)(=O)[C@@H](F)CCN6C)cc4n3)n2)C[C@H](C)O1 [Compound 318] | 8.51
C[C@@H]1CN(c2cccc(-c3ccc4cnc(CNC(=O)c5ccc6c(c5)S(=O)(=O)[C@H](F)CO[C@H]6C)cc4n3)n2)C[C@H](C)O1 [Compound 200] | 16.77

I = CC(F)(F)c1cnc2c(c1)OCCN2c1ccc2cnc(CNC(=O)c3cc(F)c4c(c3)S(=O)(=O)[C@@H](F)CCO4)cc2n1 [Compound 176]
II = C[C@H](NC(=O)c1cc(F)c2c(c1)S(=O)(=O)[C@@H](F)COC2)c1cc2nc(N3CCOc4cc(C5CC5)cnc43)ccc2cn1 [Compound 278]
Looking at recorded values for Ratio (BRG1 IC50 (μM) divided by BRM IC50 (μM)), does I or II come in lower? Mark your selection by writing its label.
II
(II: 9.67, I: 17.02)

====

System tested: BRM (Homo sapiens)
Construct: made in house; host or cells: High Five insect cells
Experimental details: ATPase catalytic activity assay (ADP-Glo), BRM
Type: biochemical
Reported conditions: ATPase assay, selectivity BRG1/BRM, Table 10
Quantity name: Ratio (BRG1 IC50 (μM) divided by BRM IC50 (μM))

Recorded results for 3 compounds are shown here.
COc1nc(C(F)F)ccc1-c1ccc2cnc(CNC(=O)c3cc(F)c4c(c3)S(=O)(=O)[C@@H](F)COC4)cc2c1 | 21.45
COc1ccc(-c2ccc3cnc(CNC(=O)c4cc(F)c5c(c4)S(=O)(=O)[C@@H](F)COC5)cc3n2)nc1[C@H]1CC1(F)F | 11.58
CC1CN(c2ccnc3c2OCCN3c2ccc3cnc(CNC(=O)c4cc(F)c5c(c4)S(=O)(=O)[C@@H](F)CCO5)cc3n2)C1 | 10.51

A = Cc1cc(C(=O)NCc2cc3nc(-c4cccc(N5C[C@@H](C)O[C@@H](C)C5)n4)ccc3cn2)cc2c1COC[C@H](F)S2(=O)=O
B = C[C@@H]1CN(c2cccc(-c3ccc4cnc(CNC(=O)c5ccc6c(c5)S(=O)(=O)[C@H](F)CCN6C)cc4n3)n2)C[C@H](C)O1
C = COc1nc(C(F)F)ccc1-c1ccc2cnc([C@H](C)NC(=O)c3ccc4c(c3)S(=O)(=O)[C@@H](F)CCOC4)cc2n1
Rank order required: Ratio (BRG1 IC50 (μM) divided by BRM IC50 (μM)), descending. Answer by writing out the labels in the requested order.
B, A, C
(B: 25.94, A: 16.50, C: 10.93)

A = Cc1cc(C(=O)NCc2cc3nc(N4CCOc5ccc(C(F)F)nc54)ccc3cn2)cc2c1COC[C@H](F)S2(=O)=O
B = O=C(NCc1cc2nc(N3CCOc4cc(N5CC[C@H](F)[C@@H](F)C5)cnc43)ccc2cn1)c1cc(Cl)c2c(c1)S(=O)(=O)[C@@H](F)COC2
Lab notebook, comparison: A versus B , higher Ratio (BRG1 IC50 (μM) divided by BRM IC50 (μM)) goes to which? // return label of chosen record
A
(A: 25.36, B: 14.50)

====

System tested: BRM (Homo sapiens, UniProt P51531)
Sequence (P51531 whole entry): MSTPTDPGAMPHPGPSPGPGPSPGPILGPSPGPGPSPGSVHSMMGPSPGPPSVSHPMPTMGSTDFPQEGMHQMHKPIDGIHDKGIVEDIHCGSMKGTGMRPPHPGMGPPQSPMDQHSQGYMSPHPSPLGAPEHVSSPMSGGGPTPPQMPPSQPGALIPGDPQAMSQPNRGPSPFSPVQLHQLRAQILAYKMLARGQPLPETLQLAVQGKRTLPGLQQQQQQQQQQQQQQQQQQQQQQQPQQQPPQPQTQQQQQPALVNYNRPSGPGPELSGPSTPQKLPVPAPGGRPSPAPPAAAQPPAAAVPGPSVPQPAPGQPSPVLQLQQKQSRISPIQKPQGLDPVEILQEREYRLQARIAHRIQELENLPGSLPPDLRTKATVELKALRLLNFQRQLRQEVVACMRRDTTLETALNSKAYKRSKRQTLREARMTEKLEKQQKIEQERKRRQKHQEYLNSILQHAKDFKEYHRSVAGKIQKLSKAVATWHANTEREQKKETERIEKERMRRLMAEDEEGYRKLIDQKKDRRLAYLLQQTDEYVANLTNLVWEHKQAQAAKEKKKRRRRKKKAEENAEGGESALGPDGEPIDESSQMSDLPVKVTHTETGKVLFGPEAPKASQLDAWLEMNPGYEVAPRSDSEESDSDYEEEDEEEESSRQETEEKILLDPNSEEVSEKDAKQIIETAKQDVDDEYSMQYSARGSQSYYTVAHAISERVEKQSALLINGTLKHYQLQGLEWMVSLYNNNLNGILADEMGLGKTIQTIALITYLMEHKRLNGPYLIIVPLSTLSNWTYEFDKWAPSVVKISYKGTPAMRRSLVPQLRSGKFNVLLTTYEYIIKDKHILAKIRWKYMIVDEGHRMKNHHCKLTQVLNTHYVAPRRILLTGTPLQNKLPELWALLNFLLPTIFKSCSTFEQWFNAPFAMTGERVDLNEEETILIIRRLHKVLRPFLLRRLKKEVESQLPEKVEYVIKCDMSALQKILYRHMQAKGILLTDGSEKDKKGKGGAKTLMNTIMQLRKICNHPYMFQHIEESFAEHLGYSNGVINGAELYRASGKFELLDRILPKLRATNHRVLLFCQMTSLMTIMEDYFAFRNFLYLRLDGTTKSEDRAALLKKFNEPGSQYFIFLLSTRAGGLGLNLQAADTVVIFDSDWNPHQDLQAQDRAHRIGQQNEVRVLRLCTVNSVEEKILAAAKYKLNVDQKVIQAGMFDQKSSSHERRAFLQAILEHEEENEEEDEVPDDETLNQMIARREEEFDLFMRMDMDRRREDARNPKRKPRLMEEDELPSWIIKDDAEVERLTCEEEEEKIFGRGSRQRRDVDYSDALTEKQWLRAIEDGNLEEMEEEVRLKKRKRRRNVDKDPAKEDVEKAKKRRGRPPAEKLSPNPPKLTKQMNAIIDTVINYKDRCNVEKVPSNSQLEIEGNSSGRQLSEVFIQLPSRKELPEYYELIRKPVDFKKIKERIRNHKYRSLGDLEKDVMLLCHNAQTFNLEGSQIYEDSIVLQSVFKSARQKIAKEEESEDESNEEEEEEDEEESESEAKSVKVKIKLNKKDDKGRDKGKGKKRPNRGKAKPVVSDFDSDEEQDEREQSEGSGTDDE
Quantity name: IC50 (nM)

O=C(NCc1cc2nc(-c3cccc(N4CCC4)n3)ccc2cn1)c1cc(F)c2c(c1)S(=O)(=O)[C@@H](F)CCO2 | 4

I = O=C(NCc1cc2nc(N3CCOc4c(OCC5CC5)ccnc43)ccc2cn1)c1cc(F)c2c(c1)S(=O)(=O)[C@@H](F)CCO2
II = O=C(NCc1cc2nc(-c3ccnc(N4CCCC4)n3)ccc2cn1)c1cc(F)c2c(c1)S(=O)(=O)[C@@H](F)CCO2
For the pair I and II , which entry has the numerically smaller recorded IC50? Selection: enter the item's label.
I

====

System tested: BRM (Homo sapiens, UniProt P51531)
Construct: made in house; host or cells: High Five insect cells
Experimental details: ATPase catalytic activity assay (ADP-Glo), BRM
Assay type: biochemical
Reported conditions: ATPase assay, selectivity BRG1/BRM, Table 10
Quantity name: Ratio (BRG1 IC50 (μM) divided by BRM IC50 (μM))

Solved entries:
COCc1cc2c(c(F)c1Cl)N(c1ccc3cnc(CNC(=O)c4cc(F)c5c(c4)S(=O)(=O)[C@@H](F)CCO5)cc3n1)CCO2 [Compound 10] | 11.90
O=C(NCc1cc2nc(N3CCOc4ccc(C(F)F)nc43)ccc2cn1)c1cc(F)c2c(c1)S(=O)(=O)[C@@H](F)COC2 [Compound 58] | 23.60
CC#Cc1ccc2c(n1)N(c1ccc3cnc(CNC(=O)c4cc(F)c5c(c4)S(=O)(=O)[C@@H](F)CCO5)cc3n1)CCO2 [Compound 37] | 15.93
O=C(NCc1cc2nc(N3CCOc4cc(C(F)F)cnc43)ccc2cn1)c1cc(F)c2c(c1)S(=O)(=O)[C@@H](F)CCO2 [Compound 159] | 14.72
C[C@@H]1CN(c2cccc(-c3ccc4cnc(CNC(=O)c5ccc6c(c5)S(=O)(=O)[C@@H](F)CN(C)C6)cc4n3)n2)C[C@H](C)O1 (single isomer, unassigned) [Compound 317] | 7.78
C[C@@H]1CN(c2cccc(-c3ccc4cnc(CNC(=O)c5cc(F)c6c(c5)S(=O)(=O)[C@@H](F)CO6)cc4n3)n2)C[C@H](C)O1 [Compound 326] | 28.75
COc1nc(C(F)F)ccc1-c1ccc2cnc(CNC(=O)c3cc(Cl)c4c(c3)S(=O)(=O)[C@@H](F)CCO4)cc2n1 [Compound 306] | 32.74
O=C(NCc1cc2cc(-c3cncc(N4CCCC4)n3)ccc2cn1)c1cc(F)c2c(c1)S(=O)(=O)[C@@H](F)CCO2 [Compound 101] | 23.62

A = O=C(NCc1cc2nc(N3CCOc4cc(C5CC5)cnc43)ccc2cn1)c1cc(F)c2c(c1)S(=O)(=O)[C@@H](F)COC2 [Compound 8]
B = CCc1cnc2c(c1)OCCN2c1ccc2cnc(CNC(=O)c3cc(F)c4c(c3)S(=O)(=O)[C@@H](F)CCO4)cc2n1 [Compound 82]
C = C#Cc1cnc2c(c1)OCCN2c1ccc2cnc(CNC(=O)c3cc(F)c4c(c3)S(=O)(=O)[C@@H](F)CCO4)cc2n1 [Compound 281]
Provide the items ranked by increasing Ratio (BRG1 IC50 (μM) divided by BRM IC50 (μM)). Lab note: final answer is the ordered label list.
C, A, B
(C: 10.16, A: 14.89, B: 22.96)

I = O=C(NCc1cc2nc(N3CCOc4cc(N5CCC5)cnc43)ccc2cn1)c1ccc2c(c1)S(=O)(=O)[C@@H](F)CCO2 [Compound 187]
II = O=C(NCc1cc2nc(-c3ccc(OC(F)F)c(C4CC4)n3)ccc2cn1)c1cc(F)c2c(c1)S(=O)(=O)[C@@H](F)CCO2 [Compound 89]
// pick min by Ratio (BRG1 IC50 (μM) divided by BRM IC50 (μM)): I , II Your choice should be expressed through its label.
I

P = O=C(NCc1cc2nc(N3CCCc4c(OC(F)F)ccnc43)ccc2cn1)c1cc(F)c2c(c1)S(=O)(=O)[C@@H](F)CCO2 [Compound 169]
Q = O=C(NCc1cc2nc(N3CCOc4cc(N5C[C@@H](F)[C@H](F)C5)cnc43)ccc2cn1)c1cc(F)c2c(c1)S(=O)(=O)[C@@H](F)CCO2 [Compound 66]
Field: lower Ratio (BRG1 IC50 (μM) divided by BRM IC50 (μM)) | Options: P / Q Returns: label corresponding to the selected item.
P
(P: 10.91, Q: 24.64)
